Measured values drawn from paper PMC12136788 for this set.

# TARGET_OR_SYSTEM: T1, UNK ZnF1-3 (human, UniProt Q9C0B0 31-174)
# T1 sequence: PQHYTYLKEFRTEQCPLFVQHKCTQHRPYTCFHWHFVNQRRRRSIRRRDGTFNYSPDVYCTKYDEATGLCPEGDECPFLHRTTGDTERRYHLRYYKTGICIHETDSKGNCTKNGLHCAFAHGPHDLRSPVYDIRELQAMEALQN
# EXPERIMENTAL_DETAILS: nsRBNS (natural sequence RNA bind-n-seq); RBNS binding buffer (assumed for nsRBNS): 25 mM Tris pH 7.5, 150 mM KCl, 3 mM MgCl2, 0.01% Triton X-100, 500 ug/ml BSA, 20 U/ml SUPERase-In, 4 C; UNK is unkempt and MSI1 is Musashi-1; names of the RNAs are library labels; protein concentration not given here; high values mean tight binding
The full ranking holds about 24,000 sequences; the median of “enrichment r” is about 0.99, and the highest 2% start at about 3.7. The sample holds the highest values, similar sequences and a random draw of the others, so the mix is not that of the screen.
Catalogue of binding signal values

{"columns": ["BINDER", "binding signal / enrichment R"],
 "data": [
  ["chr4:56294251:56294252:-_ENSG00000134852_ENST00000309964|hu_hu|FALSE|FALSE (ssRNA) RNA: GGGAGUUCUACAGUCCGACGAUCAACAUAGCACUGAGGUAUUUUUUAUUUUUAAAAUUGAAGGAAACAAAGUCUGGAUCUAAUUAUUUUUACAUUUACAAAAACUGCUACUGCUUGGCUCUUUUGCUAUAAGUUUAGGUUCUGCAACAGAGGAUUGAGCAUCA", 4.1],
  ["76906679_76906799_897_3pUTR_ENSMUSG00000022010_ENSMUST00000022587|mouse|control|control (ssRNA) RNA: GGGAGUUCUACAGUCCGACGAUCUGGGGAGGGUUGAAAAGGCACAGAGCUCCUCGGGGUCAAUUAAACCAUUCCUCAGACAUCUGCCACGUUGCACAGGGCACAUCCCUGCUCACUCUCUGAUUAACCUUUAAUUCACUCAACCAACAGAGGAUUGAGCAUCA", 1.14]
]}
